Origin of values: patent US20240190891A1

Target: human ALK5 (Homo sapiens)
Construct: human ALK5 (recombinant TGF β1 N-term GST-tagged, 80-end); GST (N); purchased
Sequence (P36897 80-503 limits assumed): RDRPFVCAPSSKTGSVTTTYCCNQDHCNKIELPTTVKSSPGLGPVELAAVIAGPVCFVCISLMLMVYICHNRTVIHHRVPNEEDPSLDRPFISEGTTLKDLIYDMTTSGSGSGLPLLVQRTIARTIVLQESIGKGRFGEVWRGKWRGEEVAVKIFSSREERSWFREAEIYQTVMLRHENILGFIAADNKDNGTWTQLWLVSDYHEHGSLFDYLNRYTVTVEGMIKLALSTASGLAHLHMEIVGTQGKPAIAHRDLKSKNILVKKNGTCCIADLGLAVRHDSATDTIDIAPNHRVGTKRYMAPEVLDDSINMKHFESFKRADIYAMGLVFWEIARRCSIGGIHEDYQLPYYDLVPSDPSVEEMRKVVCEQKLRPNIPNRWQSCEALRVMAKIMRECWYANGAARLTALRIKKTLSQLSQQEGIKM
Assay: ADP-GLO Kinases assay, inhibitory activity on ALK5
Assay type: biochemical
Details: Table 10; purified recombinant human ALK5 2.6 nM, ADP-Glo, 25° C., 150 min incubation
valueType: IC50

[[record]]
molecule = "CN1CCC(NC(=O)c2cnccc2Nc2cc(-c3cc(Cl)ccc3F)nc3c2OCCN3)CC1 [Example 32]"
valuetype = "IC50"
measuredvalue = "< 1 nM"


*Q* Report value only: IC50, human ALK5 (Homo sapiens), CN(C)CCOC(=O)c1cnccc1Nc1cc(-c2cc(Cl)ccc2F)nc2c1OCCN2 [Example 27]
*A* 1 to 5 nM

*Q* Report value only: IC50, human ALK5 (Homo sapiens), Fc1ccc(Cl)cc1-c1cc(Nc2ccncc2)c2c(n1)NCCO2 [Example 1]
*A* < 1 nM

*Q* Report value only: IC50, human ALK5 (Homo sapiens), Fc1ccc(Cl)cc1-c1cc(Nc2ccnc3[nH]ccc23)c2c(n1)NCCO2 [Example 31]
*A* < 1 nM

*Q* Report value only: IC50, human ALK5 (Homo sapiens), O=C(NC1CC1)c1cnccc1Nc1cc(-c2cc(Cl)ccc2F)nc2c1OCCN2 [Example 23]
*A* < 1 nM

*Q* Report value only: IC50, human ALK5 (Homo sapiens), O=C(NCCN1CCOCC1)c1cnccc1Nc1cc(-c2cc(Cl)ccc2F)nc2c1OCCN2 [Example 9]
*A* 1 to 5 nM

*Q* Report value only: IC50, human ALK5 (Homo sapiens), CN(C)CCC(=O)Nc1cnccc1Nc1cc(-c2cc(Cl)ccc2F)nc2c1OCCN2 [Example 39]
*A* 5 to 10 nM
